- Tested system: human NR1/NR2B (Homo sapiens, UniProt Q05586+Q13224)
- Sequence (Q13224 27-1484, other chains not shown): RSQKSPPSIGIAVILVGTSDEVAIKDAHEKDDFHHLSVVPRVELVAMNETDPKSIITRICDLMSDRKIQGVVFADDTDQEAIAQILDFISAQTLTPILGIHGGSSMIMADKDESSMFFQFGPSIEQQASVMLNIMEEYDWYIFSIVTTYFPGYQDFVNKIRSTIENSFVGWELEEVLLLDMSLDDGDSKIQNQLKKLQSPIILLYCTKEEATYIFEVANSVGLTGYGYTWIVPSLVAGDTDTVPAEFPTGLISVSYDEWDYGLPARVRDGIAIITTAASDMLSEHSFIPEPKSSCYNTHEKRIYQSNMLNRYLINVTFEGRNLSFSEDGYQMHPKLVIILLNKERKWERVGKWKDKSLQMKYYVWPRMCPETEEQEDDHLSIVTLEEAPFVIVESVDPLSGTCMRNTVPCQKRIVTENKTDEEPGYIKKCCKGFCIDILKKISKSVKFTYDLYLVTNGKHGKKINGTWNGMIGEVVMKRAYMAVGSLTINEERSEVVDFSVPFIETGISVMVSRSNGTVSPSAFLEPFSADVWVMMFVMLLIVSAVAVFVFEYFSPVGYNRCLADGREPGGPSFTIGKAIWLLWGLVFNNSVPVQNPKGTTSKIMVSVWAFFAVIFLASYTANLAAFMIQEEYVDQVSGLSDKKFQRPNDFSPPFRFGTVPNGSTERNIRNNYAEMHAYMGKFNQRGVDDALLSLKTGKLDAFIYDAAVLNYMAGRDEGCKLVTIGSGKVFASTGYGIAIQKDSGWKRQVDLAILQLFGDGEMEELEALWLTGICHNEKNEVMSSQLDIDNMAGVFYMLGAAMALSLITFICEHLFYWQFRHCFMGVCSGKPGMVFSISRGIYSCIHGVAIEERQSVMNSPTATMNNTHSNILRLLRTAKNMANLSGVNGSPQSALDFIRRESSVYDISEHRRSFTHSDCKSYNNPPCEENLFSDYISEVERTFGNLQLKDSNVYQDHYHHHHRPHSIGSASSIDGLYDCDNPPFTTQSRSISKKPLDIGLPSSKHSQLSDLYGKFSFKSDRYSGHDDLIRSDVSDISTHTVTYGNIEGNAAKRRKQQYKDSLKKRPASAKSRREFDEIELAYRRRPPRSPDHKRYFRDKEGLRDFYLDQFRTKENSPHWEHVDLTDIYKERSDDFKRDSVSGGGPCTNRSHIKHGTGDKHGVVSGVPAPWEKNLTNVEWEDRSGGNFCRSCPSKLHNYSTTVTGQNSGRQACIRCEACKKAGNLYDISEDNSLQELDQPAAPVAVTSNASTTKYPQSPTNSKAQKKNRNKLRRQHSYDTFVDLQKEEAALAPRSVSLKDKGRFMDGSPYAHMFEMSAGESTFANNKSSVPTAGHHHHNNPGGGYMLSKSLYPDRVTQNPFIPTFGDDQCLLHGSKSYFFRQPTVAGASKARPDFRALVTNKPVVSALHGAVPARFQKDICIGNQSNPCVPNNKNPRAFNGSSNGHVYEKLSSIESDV
- Experimental protocol: NR2B antagonist activity, Fluo-4 calcium influx assay in HEK293 cells
- Condition label: glutamate 100 μM and glycine 50 μM, Fluo-4 fluorescence, read-out: hNR2B IC50
Entries annotated with measured IC50
Readout: IC50 (nM)

Compound | Readout | Measurement
Cc1ccc(COC(=O)N2CC[C@H](CNc3ncccn3)[C@H](F)C2)cc1 [Compound D] | IC50 | 11
Cc1ccc(COC(=O)N2CC[C@@H](CNc3ncccn3)[C@@H](F)C2)cc1 | IC50 | 18

###

- Tested system: human NR1/NR2A (Homo sapiens, UniProt Q05586+Q12879)
- Sequence (Q12879 23-1464, other chains not shown): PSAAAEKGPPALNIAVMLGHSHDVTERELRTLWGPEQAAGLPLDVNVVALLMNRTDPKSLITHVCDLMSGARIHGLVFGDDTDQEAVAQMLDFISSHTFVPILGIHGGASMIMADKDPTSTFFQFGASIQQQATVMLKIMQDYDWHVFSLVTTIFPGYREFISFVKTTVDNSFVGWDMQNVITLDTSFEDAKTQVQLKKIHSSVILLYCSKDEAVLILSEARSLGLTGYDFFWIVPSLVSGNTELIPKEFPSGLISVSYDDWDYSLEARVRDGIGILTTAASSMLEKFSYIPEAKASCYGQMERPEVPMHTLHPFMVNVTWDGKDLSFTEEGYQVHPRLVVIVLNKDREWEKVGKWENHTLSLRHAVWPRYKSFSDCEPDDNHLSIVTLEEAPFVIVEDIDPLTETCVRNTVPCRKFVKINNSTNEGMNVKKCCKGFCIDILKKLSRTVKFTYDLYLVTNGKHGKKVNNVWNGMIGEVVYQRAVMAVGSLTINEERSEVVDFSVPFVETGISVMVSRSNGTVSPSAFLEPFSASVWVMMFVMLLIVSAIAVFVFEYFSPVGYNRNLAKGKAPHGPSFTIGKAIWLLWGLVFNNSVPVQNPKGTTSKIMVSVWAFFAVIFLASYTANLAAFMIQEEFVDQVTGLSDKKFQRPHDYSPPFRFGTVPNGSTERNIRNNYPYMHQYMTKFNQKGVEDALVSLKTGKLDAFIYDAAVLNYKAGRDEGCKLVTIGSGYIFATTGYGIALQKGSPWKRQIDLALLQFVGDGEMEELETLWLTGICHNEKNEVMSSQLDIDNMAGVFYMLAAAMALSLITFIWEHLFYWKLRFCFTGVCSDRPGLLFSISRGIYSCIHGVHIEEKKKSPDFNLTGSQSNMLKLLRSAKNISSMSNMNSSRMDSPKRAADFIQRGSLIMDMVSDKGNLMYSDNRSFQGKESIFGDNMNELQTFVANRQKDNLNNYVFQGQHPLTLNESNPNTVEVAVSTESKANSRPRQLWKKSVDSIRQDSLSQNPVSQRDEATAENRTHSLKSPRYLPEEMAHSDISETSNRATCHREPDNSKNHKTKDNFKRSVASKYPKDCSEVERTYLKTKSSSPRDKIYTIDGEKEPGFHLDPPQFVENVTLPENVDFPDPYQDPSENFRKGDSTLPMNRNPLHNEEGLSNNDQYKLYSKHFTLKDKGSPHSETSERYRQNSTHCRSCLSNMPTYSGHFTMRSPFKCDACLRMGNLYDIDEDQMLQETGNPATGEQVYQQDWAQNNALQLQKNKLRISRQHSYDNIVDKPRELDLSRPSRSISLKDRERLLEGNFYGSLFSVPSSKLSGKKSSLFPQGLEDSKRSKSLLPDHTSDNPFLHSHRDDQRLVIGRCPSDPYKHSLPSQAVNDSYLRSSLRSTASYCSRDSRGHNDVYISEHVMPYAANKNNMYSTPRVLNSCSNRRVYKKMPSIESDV
- Experimental protocol: NR2A antagonist activity, Fluo-4 calcium influx assay in HEK293 cells
- Condition label: glutamate 100 μM and glycine 50 μM, Fluo-4 fluorescence, read-out: hNR2A IC50

Smiles representation | IC50
FC(F)(F)c1ccc(C(F)(F)CN2CCC(Nc3ncnc4[nH]ncc34)CC2)cc1 | > 10 µM
Cc1ccc(COC(=O)N2CC[C@@H](CNc3ncccn3)[C@@H](F)C2)cc1 | > 10 µM
Cc1ccc(COC(=O)N2CC[C@H](CNc3ncccn3)[C@H](F)C2)cc1 | > 10 µM
